Experiment: In vivo pharmacokinetic test in rats
Set-up: species or system SD Rats
Conditions: Sprague-Dawley (SD), rat; male rats, oral, single dose 30 mg/kg, plasma
Procedure: Each test compound was administered orally once to male […] rats for pharmacokinetic study. The test compounds were prepared on the day of administration. The intravenous administration solvent: 5% DMSO + 10% solutol + 85% saline; and the oral administration solvent: 50 mM sodium citrate (pH 5.0) + 10% captisol. The oral administration was conducted in a dose of 30 mg/kg. […] The concentrations of compounds in the plasma samples were determined using an LC-MS/MS analysis method. […]

Molecule: CC1(O)COCCN(c2nc(OCC34CCCN3C(c3cc(F)c(F)c(F)c3)CC4)nc3c(F)c(-c4cccc5sc(N)c(C#N)c45)c(Cl)cc23)C1 (single isomer, unassigned)
AUC [ng·h/mL]: 5290

Molecule: CC1(O)COCCN(c2nc(OCC34CCCN3C(c3cc(F)c(F)c(F)c3)CC4)nc3c(F)c(-c4cccc5sc(N)c(C#N)c45)c(I)cc23)C1 (single isomer, unassigned)
AUC [ng·h/mL]: 11300

---

test: In vivo pharmacokinetic test in mice; settings: mouse, in vivo, po, 30 mg/kg, female BALB/c mice, single dose 30 mg/kg, plasma, read-out: Cmax
Metric name: Cmax

Compound: CC1(O)COCCN(c2nc(OCC34CCCN3C(c3cc(F)c(F)c(F)c3)CC4)nc3c(F)c(-c4cccc5sc(N)c(C#N)c45)c(Br)cc23)C1 (single isomer, unassigned) [Example 26]
Metric name: Cmax
Value measured: 4880 ng/mL

---

test system: KRAS G12D-mediated ERK phosphorylation; experiment: Inhibition of KRAS G12D-mediated ERK phosphorylation in AGS cells (in-cell pERK/GAPDH immunofluorescence); assay type: cell-based; settings: AGS cells, 3 h incubation; read-out: Inhibitory activity on ERK phosphorylation (IC50) AGS-G12D
So basically: is IC50 under 5 nM? Then 1 (yes). Not under? Then 0 (no).

Compound: CC1(O)COCCN(c2nc(OCC34CCCN3C(c3cc(F)c(F)c(F)c3)CC4)nc3c(F)c(-c4cccc5sc(N)c(C#N)c45)c(I)cc23)C1 (single isomer, unassigned) [Example 31]
Label: 1 (yes)

Compound: CC1(O)COCCN(c2nc(OCC34CCCN3C(c3cc(F)c(F)c(F)c3)CC4)nc3c(F)c(-c4cccc5sc(N)c(C#N)c45)c(Cl)cc23)C1 (single isomer, unassigned) [Example 22]
Label: 0 (no)

Compound: CC1(O)COCCN(c2nc(OCC34CCCN3C(c3cc(F)c(F)c(F)c3)CC4)nc3c(F)c(-c4cccc5sc(N)c(C#N)c45)c(Cl)cc23)C1 (single isomer, unassigned) [Example 20]
Label: 0 (no)

Compound: CC1(O)COCCN(c2nc(OCC34CCCN3C(c3cc(F)c(F)c(F)c3)CC4)nc3c(F)c(-c4cccc5sc(N)c(C#N)c45)c(I)cc23)C1 (single isomer, unassigned) [Example 30]
Label: 0 (no)

Compound: CC1(O)COCCN(c2nc(OCC34CCCN3C(c3cc(F)c(F)c(F)c3)CC4)nc3c(F)c(-c4cccc5sc(N)c(C#N)c45)c(I)cc23)C1 (single isomer, unassigned) [Example 32]
Label: 0 (no)

Compound: CC1(O)COCCN(c2nc(OCC34CCCN3C(c3cc(F)c(F)c(F)c3)CC4)nc3c(F)c(-c4cccc5sc(N)c(C#N)c45)c(I)cc23)C1 (single isomer, unassigned) [Example 29]
Label: 0 (no)

Compound: CC1(O)COCCN(c2nc(OCC34CCCN3C(c3cc(F)c(F)c(F)c3)CC4)nc3c(F)c(-c4cccc5sc(N)c(C#N)c45)c(I)cc23)C1 (single isomer, unassigned) [Example 28]
Label: 1 (yes)

Compound: CC1(O)COCCN(c2nc(OCC34CCCN3C(c3cc(F)c(F)c(F)c3)CC4)nc3c(F)c(-c4ccc(F)c5sc(N)c(C#N)c45)c(Cl)cc23)C1 (single isomer, unassigned) [Example 9]
Label: 0 (no)

Compound: CC1(O)COCCN(c2nc(OCC34CCCN3C(c3cc(F)c(F)c(F)c3)CC4)nc3c(F)c(-c4ccc(F)c5sc(N)c(C#N)c45)c(Cl)cc23)C1 (single isomer, unassigned) [Example 12]
Label: 1 (yes)

Compound: CC1(O)COCCN(c2nc(OCC34CCCN3C(c3cc(F)c(F)c(F)c3)CC4)nc3c(F)c(-c4cccc5sc(N)c(C#N)c45)c(Cl)cc23)C1 (single isomer, unassigned) [Example 19]
Label: 0 (no)

Compound: CC1(O)COCCN(c2nc(OCC34CCCN3C(c3cc(F)c(F)c(F)c3)CC4)nc3c(F)c(-c4cccc5sc(N)c(C#N)c45)c(Cl)cc23)C1 (single isomer, unassigned) [Example 21]
Label: 1 (yes)

Compound: CC1(O)COCCN(c2nc(OCC34CCCN3C(c3cc(F)c(F)c(F)c3)CC4)nc3c(F)c(-c4cccc5sc(N)c(C#N)c45)c(Cl)cc23)C1 (single isomer, unassigned) [Example 18]
Label: 0 (no)

---

experiment: In vivo pharmacokinetic test in mice; conditions: female, BALB/c, mouse, plasma, po, 30 mg/kg, single dose 30 mg/kg, read-out: Cmax

Molecule: CC1(O)COCCN(c2nc(OCC34CCCN3C(c3cc(F)c(F)c(F)c3)CC4)nc3c(F)c(-c4cccc5sc(N)c(C#N)c45)c(I)cc23)C1 (single isomer, unassigned)
Units of measure: ng/mL
Cmax: 3290

---

assay: In vivo pharmacokinetic test in mice; conditions: mouse, in vivo, po, 30 mg/kg, female BALB/c mice, single dose 30 mg/kg, plasma, read-out: AUC
Metric name: AUC (ng·h/mL)

Compound: CC1(O)COCCN(c2nc(OCC34CCCN3C(c3cc(F)c(F)c(F)c3)CC4)nc3c(F)c(-c4cccc5sc(N)c(C#N)c45)c(Br)cc23)C1 (single isomer, unassigned)
Value measured: 15800

---

experiment: In vivo pharmacokinetic test in mice; details: mouse; female BALB/c mice, oral, single dose 30 mg/kg, plasma; read-out: Cmax

Molecule: N#Cc1c(N)sc2c(F)ccc(-c3c(Cl)cc4c(N5CCOCC5)nc(OC[C@@]56CCCN5[C@H](c5cc(F)c(F)c(F)c5)CC6)nc4c3F)c12 (relative stereo)
Cmax, µg/mL: 1.49

Molecule: CC1(O)COCCN(c2nc(OCC34CCCN3C(c3cc(F)c(F)c(F)c3)CC4)nc3c(F)c(-c4cccc5sc(N)c(C#N)c45)c(Br)cc23)C1 (centres unmarked)
Cmax, µg/mL: 3.62

---

assay: In vivo pharmacokinetic test in mice; conditions: female BALB/c mice, oral, single dose 30 mg/kg, plasma; 30 mg/kg

Compound: CC1(O)COCCN(c2nc(OCC34CCCN3C(c3cc(F)c(F)c(F)c3)CC4)nc3c(F)c(-c4cccc5sc(N)c(C#N)c45)c(Cl)cc23)C1 (single isomer, unassigned) [Example 18]
AUC: 6017 ng·h/mL

Compound: CC1(O)COCCN(c2nc(OCC34CCCN3C(c3cc(F)c(F)c(F)c3)CC4)nc3c(F)c(-c4cccc5sc(N)c(C#N)c45)c(I)cc23)C1 (single isomer, unassigned) [Example 28]
AUC: 9224 ng·h/mL

Compound: CC1(O)COCCN(c2nc(OCC34CCCN3C(c3cc(F)c(F)c(F)c3)CC4)nc3c(F)c(-c4cccc5sc(N)c(C#N)c45)c(I)cc23)C1 (single isomer, unassigned) [Example 31]
AUC: 20953 ng·h/mL

---

Test: In vivo pharmacokinetic test in rats
Design: species or system SD Rats
Conditions: rat, in vivo; male rats, oral, single dose 30 mg/kg, plasma
Experimental: Each test compound was administered orally once to male […] rats for pharmacokinetic study. The test compounds were prepared on the day of administration. The intravenous administration solvent: 5% DMSO + 10% solutol + 85% saline; and the oral administration solvent: 50 mM sodium citrate (pH 5.0) + 10% captisol. The oral administration was conducted in a dose of 30 mg/kg. […] The concentrations of compounds in the plasma samples were determined using an LC-MS/MS analysis method. […]

Molecule: CC1(O)COCCN(c2nc(OCC34CCCN3C(c3cc(F)c(F)c(F)c3)CC4)nc3c(F)c(-c4cccc5sc(N)c(C#N)c45)c(Br)cc23)C1 (single isomer, unassigned) [Example 26]
AUC: 12400 ng·h/mL

---

Recorded AUC, one value per entry.
assay: In vivo pharmacokinetic test in mice; conditions: female BALB/c mice, oral, single dose 30 mg/kg, plasma; 30 mg/kg
Metric name: AUC

Compound: CC1(O)COCCN(c2nc(OCC34CCCN3C(c3cc(F)c(F)c(F)c3)CC4)nc3c(F)c(-c4ccc(F)c5sc(N)c(C#N)c45)c(Cl)cc23)C1 (single isomer, unassigned) [Example 9]
Value measured: 5181 ng·h/mL
--
Compound: CC1(O)COCCN(c2nc(OCC34CCCN3C(c3cc(F)c(F)c(F)c3)CC4)nc3c(F)c(-c4cccc5sc(N)c(C#N)c45)c(Cl)cc23)C1 (single isomer, unassigned) [Example 21]
Value measured: 30872 ng·h/mL
--
Compound: CC1(O)COCCN(c2nc(OCC34CCCN3C(c3cc(F)c(F)c(F)c3)CC4)nc3c(F)c(-c4ccc(F)c5sc(N)c(C#N)c45)c(Cl)cc23)C1 (single isomer, unassigned) [Example 12]
Value measured: 37427 ng·h/mL
